Please provide measured pEC50 for the entries that follow.
Target Under Test: human GPBAR1 receptor (Homo sapiens)
Construct: expressed in transfected cells
Sequence (Q8TDU6 whole entry): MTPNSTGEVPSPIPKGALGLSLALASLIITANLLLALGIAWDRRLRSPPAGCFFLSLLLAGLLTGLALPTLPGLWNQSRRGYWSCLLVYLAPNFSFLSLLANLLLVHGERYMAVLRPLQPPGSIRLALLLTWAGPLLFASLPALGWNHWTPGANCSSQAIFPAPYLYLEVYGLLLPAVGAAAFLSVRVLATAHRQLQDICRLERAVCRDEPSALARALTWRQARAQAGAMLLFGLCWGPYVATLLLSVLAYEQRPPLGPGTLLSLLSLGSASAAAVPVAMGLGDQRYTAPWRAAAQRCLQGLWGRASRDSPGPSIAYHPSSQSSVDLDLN
Protocol: functional cAMP assay in CHO-dhfr(minus) cells expressing human GPBAR1 receptors
Format: cell-based
Run Conditions: human EC50, functional cAMP assay, 30 min at 30° C.
// pEC50 here means minus log10 of the molar concentration (mol/L)

Challenge: Query: pEC50; subject: Cc1cc(Cl)ccc1[C@H](C/C(=N\O)c1cc[n+]([O-])c(C)c1)c1ccc(Br)cc1 [Example 384]
Response given: 6.77

Challenge: // repeat for Cc1cc(C(CC(c2ccccc2)c2ccccc2)=NO)cc(C)n1 (racemic) [Example 67] and report
Response given: 6.88

Challenge: // repeat for CCn1cc(/C(CC(c2ccc(Br)cc2)c2ccccc2C)=N\O)ccc1=O (stereo not drawn) [Example 165] and report
Response given: 6.26

Challenge: // repeat for Cc1cc(/C(C[C@H](c2ccc(Br)cc2)c2ccc(Cl)cc2C)=N/O)ccn1 [Example 386] and report
Response given: 6.77

Challenge: // repeat for Cc1cc(C(CC(c2ccc(-c3ccc(C(=O)O)c(F)c3)cc2)c2ccccc2C)=NO)ccn1 (racemic) [Example 112] and report
Response given: 7.80

Challenge: // repeat for Cn1cc(/C(CC(c2ccccc2)c2ccccc2)=N/O)ccc1=O [Example 161] and report
Response given: 6.92

Challenge: // repeat for Cc1cc(/C(CC(c2ccc(C(=O)NC3CC3)cc2)c2ccc(F)cc2F)=N/O)ccn1 (stereo not drawn) [Example 432] and report
Response given: 7.24

Challenge: // repeat for Cc1cc(C(CC(c2ccccc2)c2ccccc2)=NO)ccn1 (racemic) [Example 57] and report
Response given: 7.14

Challenge: // repeat for Cn1cc(/C(CC(c2ccc(S(C)(=O)=O)cc2)c2cc(Cl)cc(Cl)c2)=N/O)ccc1=O (stereo not drawn) [Example 352] and report
Response given: 7.09

Challenge: // repeat for Cc1ccccc1C(C/C(=N\O)c1ccc(=O)n(C)c1)c1ccc(C(=O)N[C@@H](CO)C(C)C)cc1 (single isomer, unassigned) [Example 306] and report
Response given: 6.29

Challenge: // repeat for Cc1ccccc1[C@H](C/C(=N\O)c1ccc(=O)n(C)c1)c1ccc(C2CCN(C(=O)OC(C)(C)C)CC2)cc1 [Example 506] and report
Response given: 6.20

Challenge: // repeat for O/N=C(\CC(c1ccccc1)c1ccc(C2CC2)cc1)c1ccncc1 (stereo not drawn) [Example 16] and report
Response given: 6.75

Challenge: // repeat for Cc1cc(/C(C[C@H](c2ccc(Br)cc2)c2ccc(F)cc2F)=N/O)ccn1 (single isomer, unassigned) [Example 426] and report
Response given: 7.39

Challenge: // repeat for Cc1ccccc1[C@H](C/C(=N\O)c1ccc(=O)n(C)c1)c1ccc(C#N)cc1 [Example 498] and report
Response given: 8.15

Challenge: // repeat for Cn1cc(/C(CC(c2ccccc2Cl)C2CCCC2)=N/O)ccc1=O (stereo not drawn) [Example 197] and report
Response given: 7.92

Challenge: // repeat for Cc1cc(/C(C[C@H](c2ccc(-c3ccc(C(=O)O)cc3)cc2)c2ccc(Cl)cc2C)=N/O)ccn1 [Example 297] and report
Response given: 7.89

Challenge: // repeat for Cc1cc(C(=O)O)ccc1-c1ccc(C(C/C(=N\O)c2ccc(=O)n(C)c2)c2ccc(Cl)cc2F)cc1 (single isomer, unassigned) [Example 466] and report
Response given: 6.46

Challenge: // repeat for O/N=C(\CC(c1ccccc1)c1ccc(Br)cc1)c1cc(Cl)nc(Cl)c1 (stereo not drawn) [Example 47] and report
Response given: 6.26

Challenge: // repeat for Cc1cc(Cl)ccc1C(C/C(=N\O)c1ccc(=O)n(C)c1)c1ccc(C(=O)NCCS(C)(=O)=O)cc1 (stereo not drawn) [Example 336] and report
Response given: 6.48

Challenge: // repeat for O/N=C(\CC(c1ccccc1)c1ccccc1)c1cc(Cl)nc(Cl)c1 [Example 72] and report
Response given: 6.66

Challenge: // repeat for Cc1ccccc1C(C/C(=N\O)c1cc(F)cc(F)c1F)c1ccc(Br)cc1 (stereo not drawn) [Example 48] and report
Response given: 5.36

Challenge: // repeat for CCOC(=O)c1cccc(-c2ccc(C(CC(=NO)c3ccnc(C)c3)c3ccccc3C)cc2)c1 (racemic) [Example 78] and report
Response given: 6.42

Challenge: // repeat for Cn1cc(/C(CC(c2ccc(-c3ccc(C(=O)O)c(F)c3)cc2)c2ccc(Cl)cc2Cl)=N/O)ccc1=O (stereo not drawn) [Example 473] and report
Response given: 7.54

Challenge: // repeat for Cc1cc(Cl)ccc1[C@H](C/C(=N\O)c1ccc(=O)n(C)c1)c1ccc(-c2ccc(S(N)(=O)=O)cc2)cc1 (single isomer, unassigned) [Example 413] and report
Response given: 7.74

Challenge: // repeat for Cc1cc(/C(CC(c2ccc(-c3ccc(C(=O)O)c(F)c3)cc2)c2ccccc2C(F)(F)F)=N/O)ccn1 (stereo not drawn) [Example 135] and report
Response given: 7.54

Challenge: // repeat for Cc1cc(/C(CC(c2ccc(/C=C/C(=O)O)cc2)c2ccccc2C)=N\O)ccn1 (racemic) [Example 87] and report
Response given: 6.62

Challenge: // repeat for Cc1cc(/C(C[C@H](c2ccc(O)cc2)c2ccccc2C)=N/O)ccn1 [Example 363] and report
Response given: 7.55

Challenge: // repeat for Cc1cc(Cl)ccc1C(C/C(=N\O)c1ccc(=O)n(C)c1)c1ccc(-c2ccc(C(=O)NCC(=O)O)cc2)cc1 (stereo not drawn) [Example 229] and report
Response given: 7.66

Challenge: // repeat for Cc1cc(=O)n(C)cc1/C(CC(c1ccc(Br)cc1)c1ccccc1C)=N/O (stereo not drawn) [Example 199] and report
Response given: 7.64

Challenge: // repeat for COC(=O)CC(=O)Nc1ccc(-c2ccc(C(C/C(=N\O)c3ccc(=O)n(C)c3)c3ccc(F)cc3C)cc2)cc1 (stereo not drawn) [Example 399] and report
Response given: 6.78
